Test: gradient 5% acetonitrile 3 min, to 50% in 2 min, to 85% in 15 min, held 3 min, 100 µL/min
Conditions: column: Zorbax Extend-C18 2.1 x 50 mm; eluents: water / acetonitrile, 0.1% formic acid
Sorting guide: entries reporting RP-LC retention time beneath 800 s go in the MET pile, the rest go in the NOT MET pile.

compound	assigned label
COc1cc(OC)c(NC(=O)Cn2nc(C(=O)N3CCCC3)c3ccccc32)cc1Cl	NOT MET
Cc1onc(-c2ccccc2Cl)c1C(=O)Nc1nc(-c2ccc([N+](=O)[O-])cc2)cs1	NOT MET
O=C(NC1CC1)c1nc(C(=O)N2CCN(c3ccccn3)CC2)cs1	MET
CS(=O)(=O)N1CCC(C(=O)N2CCC(COCc3ccccc3)CC2)CC1	MET
CCOc1cc(-c2noc(-c3ncn4c3COC(c3ccc(F)cc3)C4)n2)ccc1OC (centres undefined)	NOT MET
COc1ccccc1CNC(=O)c1nnc(-c2ccc(S(=O)(=O)N(C)C)cc2)o1	NOT MET
CCOc1ccc(-n2nnc(-c3nc(-c4cccc(OC)c4)cs3)c2N)cc1	NOT MET
O=C(NCc1ccc(F)c(Cl)c1)c1csc(C(=O)NC2CCCC2)n1	NOT MET
Cc1ccn2cc(-c3ccc(NS(=O)(=O)c4ccc(Cl)c(Cl)c4)cc3)nc2n1	MET
O=C(Nc1cccc(F)c1)C1CCCN(c2nc3ccsc3c(=O)n2Cc2ccc(F)cc2)C1 (centres undefined)	NOT MET
CC(C)N1CCN(C(=O)c2cn(-c3ccc(-c4nc(C(C)(C)C)no4)cn3)cn2)CC1	MET
Cc1ccccc1NC(=O)C1CCCN(c2ccc3cc(S(=O)(=O)N4CCCCC4)ccc3n2)C1 (centres undefined)	NOT MET
CCN(Cc1ccccc1)C(=O)CN1C(=O)CCCc2cc(S(=O)(=O)N3CCOCC3)ccc21	NOT MET
CSc1ncccc1C(=O)Nc1ccc(OCc2nnc(-c3ccccc3)o2)cc1	NOT MET
CCN(C(=O)c1ccco1)c1nc(-c2ccc(Br)cc2)cs1	NOT MET
Cc1ccc(CNC(=O)Nc2ccc(-c3nc(-c4cc(C)ccc4C)co3)cc2)cc1	NOT MET
Cc1ccc(NC(=O)Cn2ccc3sccc3c2=O)cc1Cl	NOT MET
Nc1cc(C2CCN(C(=O)Cc3c(F)cccc3Cl)CC2)no1	MET
Cc1nc(NCCNC(=O)c2cccs2)cc(N2CCCC2)n1	MET
Cc1nc(-c2ccc(C(=O)N3CCOCC3)cc2)no1	MET
COc1ccc(C(O)Cn2ccn3nc(-c4cc(C)ccc4C)cc3c2=O)cc1OC (centres undefined)	NOT MET
COCC(C)(O)CNC(=O)c1ccc(F)c(F)c1 (centres undefined)	MET
CC1CCCCN1CCCNC(=O)Cn1c(=O)c2cccn2c2ccc(F)cc21 (centres undefined)	MET
Cc1cc(N)n(Cc2ccccc2)n1	MET
Cc1sc(NC(=O)c2ccccc2Br)nc1-c1ccc2c(c1)NC(=O)C(C)O2 (centres undefined)	NOT MET
O=C(c1ccco1)N1CCCC1c1nc(-c2ccc(F)cc2F)no1 (centres undefined)	NOT MET
CCCS(=O)(=O)N1CCC(c2noc(-c3ccccc3)n2)C1 (centres undefined)	NOT MET
O=C(NCc1ccc(Cl)cc1)c1ccc2ccnc(N3CCN(C(=O)c4ccco4)CC3)c2c1	MET
OC(c1cc(C(F)(F)F)nc2c(C(F)(F)F)cccc12)C1CCCCN1 (centres undefined)	MET
CC(C)CN1C(=O)c2cccn2CC1C(=O)NCCN(C)C1CCCCC1 (centres undefined)	MET
CNC(=O)C1CCCN(c2nc3ncn(CC(=O)Nc4ccc5c(c4)OCO5)c(=O)c3s2)C1 (centres undefined)	NOT MET
O=C(Nc1ccc(N2CCOCC2)cc1)C1CCCN(c2ncc(-c3cccc(F)c3)cn2)C1 (centres undefined)	NOT MET
O=C(Nc1c(F)cccc1F)N1CCC(c2ccccc2)C1 (centres undefined)	MET
Cc1nn(C(=O)C2CC2)c(C)c1Sc1ccccc1[N+](=O)[O-]	NOT MET
CC(C)c1nc(N2CCCC2=O)sc1C(=O)NCc1ccc(N(C)C)cc1	MET
Cc1c(Cl)cccc1N1C(=O)CN(S(C)(=O)=O)CC1(C)C(=O)NCc1ccccc1 (centres undefined)	NOT MET
